Where these numbers come from: patent US9796676B2

Tested on: Apis mellifera Carniolan foraging worker honeybees
Assay: Choice test in a free-flight box apparatus
Assay type: in vivo
Conditions: free-flight box; 2 μL of 0.05-0.5% compound on filter papers under honey dish
Returns satisfied if the recorded nP (number of tests a honeybee returned to a preferred test dish) is greater than or equal to 9, and not satisfied otherwise.

{"COMPOUND": "Oc1ccc2ccccc2c1C=Nc1ccc(I)cc1", "ASSAY SYSTEM": "Apis mellifera Carniolan foraging worker honeybees", "GROUP LABEL": "satisfied"}
{"COMPOUND": "CCOc1ccccc1C=NN1C(=O)c2ccccc2C1=O", "ASSAY SYSTEM": "Apis mellifera Carniolan foraging worker honeybees", "GROUP LABEL": "not satisfied"}
{"COMPOUND": "CC(=O)c1ccccc1NC(=O)C1CCC(C(=O)Nc2ccccc2C(C)=O)S1 (stereo not drawn)", "ASSAY SYSTEM": "Apis mellifera Carniolan foraging worker honeybees", "GROUP LABEL": "not satisfied"}
{"COMPOUND": "CCOC(=O)c1cc(CC)sc1NC(=O)c1ccccc1", "ASSAY SYSTEM": "Apis mellifera Carniolan foraging worker honeybees", "GROUP LABEL": "not satisfied"}
{"COMPOUND": "CCc1ccc(O)c(N=Cc2cc(I)cc(I)c2O)c1", "ASSAY SYSTEM": "Apis mellifera Carniolan foraging worker honeybees", "GROUP LABEL": "not satisfied"}
{"COMPOUND": "Nc1c(C(=O)c2ccccc2)sc2nc(-c3cccnc3)ccc12", "ASSAY SYSTEM": "Apis mellifera Carniolan foraging worker honeybees", "GROUP LABEL": "satisfied"}
{"COMPOUND": "Oc1ccc2ccccc2c1C=NNc1ccccn1", "ASSAY SYSTEM": "Apis mellifera Carniolan foraging worker honeybees", "GROUP LABEL": "satisfied"}
{"COMPOUND": "Oc1c(Br)cc(Cl)cc1C=Nc1ccccn1", "ASSAY SYSTEM": "Apis mellifera Carniolan foraging worker honeybees", "GROUP LABEL": "satisfied"}
{"COMPOUND": "CCCCCC(C)=O [2-heptone, 2-Heptanone, reference compound]", "ASSAY SYSTEM": "Apis mellifera Carniolan foraging worker honeybees", "GROUP LABEL": "satisfied"}
{"COMPOUND": "c1ccc(Oc2cc(-n3cccn3)nc(-c3ccccc3)n2)cc1", "ASSAY SYSTEM": "Apis mellifera Carniolan foraging worker honeybees", "GROUP LABEL": "not satisfied"}
{"COMPOUND": "O=C1NC(=S)SC1=Cc1ccc(N2CCOCC2)c([N+](=O)[O-])c1", "ASSAY SYSTEM": "Apis mellifera Carniolan foraging worker honeybees", "GROUP LABEL": "not satisfied"}
